Value source: patent US7732464B2

# assay.comment: Metabolic stability: incubation with liver microsomes and NADPH-generating system, LC-MS analysis
# Assay type: in vitro ADME
# details: compound 5 μM; microsomes 1 mg/ml; NADPH-generating system; 60 minutes at 37 degrees Celsius
measure.name: % metabolised compound after 60 minutes (%)

Example cases with answers are listed next.
> print(dat)
                                   compound                             measure.name  test.result
1  COC1CN(CCCc2cc(O)no2)CCC1CNC(=O)c1cc(Cl)cc2c1OCCCO2 (stereo not shown)  % metabolised compound after 60 minutes           17
2  Cc1ccc(C(=O)NC[C@@H]2CCN(CCCc3cc(O)no3)C[C@H]2O)c2c1OCCCO2  % metabolised compound after 60 minutes            3

(a) COc1ccc(C(=O)NCC2CCN(CCCc3cc(O)no3)CC2OC)c2c1OCCCO2 (stereo not shown)
(b) COC1CN(CCCCn2ccc(O)n2)CCC1CNC(=O)c1cc(C#N)cc2c1OCCCO2 (stereo not shown)
Asked: Which numeric % metabolised compound after 60 minutes is bigger, that of a or that of b ? Label of pick, please.
Given back: b

* * *

# assay.target: h5-HT4b (Homo sapiens, UniProt Q13639)
# Construct: expressed in transfected cells; host or cells: HEK 293 (clone 9), membrane preparation
# Sequence (Q13639 whole entry): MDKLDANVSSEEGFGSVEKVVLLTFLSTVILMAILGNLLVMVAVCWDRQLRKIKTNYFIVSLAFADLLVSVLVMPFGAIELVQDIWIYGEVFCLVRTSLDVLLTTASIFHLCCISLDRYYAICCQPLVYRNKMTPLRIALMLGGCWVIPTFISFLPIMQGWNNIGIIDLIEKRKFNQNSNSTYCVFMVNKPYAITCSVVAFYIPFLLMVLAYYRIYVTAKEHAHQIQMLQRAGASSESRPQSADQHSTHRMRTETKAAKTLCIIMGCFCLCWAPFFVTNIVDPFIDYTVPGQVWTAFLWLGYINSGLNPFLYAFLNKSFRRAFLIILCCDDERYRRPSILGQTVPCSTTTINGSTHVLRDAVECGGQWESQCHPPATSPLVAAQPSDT
# assay.comment: 5HT4 antagonism: [3H]GR113808 binding to membranes of h5-HT4b-HEK 293 clone 9 cells
# details: displacement of [3H]GR113808 0.1 nM; h5-HT4b-HEK 293 membranes; 30 min at 25° C.; read-out: pIC50 (5HT4 antagonistic data) (converted)
# Procedure: h5-HT4b-HEK 293 clone 9 cells were cultured in 150 mm Petri dishes and washed twice with cold PBS. The cells were then scraped from the plates and suspended in 50 mM Tris-HCl buffer, pH 7.4 and harvested by centrifugation at 23,500 rpm for 10 minutes. The pellet was resuspended in 5 mM Tris-HCl, pH 7.4 and homogenized with an Ultra Turrax homogenizer. The membranes were collected by centrifugation at 30,000 rpm for 20 min, resuspended in 50 mM Tris-HCl pH 7.4 and stored at −80° C. […]
measure.name: IC50 (nM)

Example cases with answers are listed next.
> print(dat)
                                   compound                            assay.target  test.result
1  COc1ccc(C(=O)NC[C@@H]2CCN(CCCCn3ccc(O)n3)C[C@H]2O)c2c1OCCO2  h5-HT4b (Homo sapiens, UniProt Q13639)          2.4
2  Cc1ccc(C(=O)NC[C@@H]2CCN(CCCCc3nnn[nH]3)C[C@H]2O)c2c1OCCCO2  h5-HT4b (Homo sapiens, UniProt Q13639)         5.62
3  O=C(NC[C@@H]1CCN(CCCc2cc(O)no2)C[C@H]1O)c1cccc2c1OCCCO2  h5-HT4b (Homo sapiens, UniProt Q13639)         17.8
4  Cc1cc2c(c(C(=O)NC[C@@H]3CCN(CCc4nnn[nH]4)C[C@H]3O)c1)OCCCO2  h5-HT4b (Homo sapiens, UniProt Q13639)         46.8
5  O=C(NCC1CCN(CCCCn2ccc(O)n2)CC1O)c1cc(Cl)c(Br)c2c1OCCCO2 (centres unmarked)  h5-HT4b (Homo sapiens, UniProt Q13639)         1.17
6  N#Cc1cc2c(c(C(=O)NC[C@@H]3CCN(CCCc4cc(O)no4)C[C@H]3O)c1)OCCO2  h5-HT4b (Homo sapiens, UniProt Q13639)          148

(I) O=C(NCC1CCN(CCCCn2ccc(O)n2)CC1O)c1cc(Cl)cc2c1OCCCO2 (centres unmarked)
(II) COc1ccc(C(=O)NC[C@@H]2CCN(CCCCN3CCOCC3)C[C@H]2O)c2c1OCCCO2
Asked: Compare reported IC50 values for I and II . Which is lower? Label of pick, please.
Given back: I
(I: 1.26 nM, II: 4.07 nM)
